Attribution: the supplement of paper PMC4022240

# peptide microarray binding signal listing for each entry below
- SYSTEM TESTED: HaloTag-ING2 PHD (mouse Ing2 200-280)
- ASSAY METHOD TEXT: peptide microarray binding signal (635 nm), min-max normalized on array (fraction of array maximum); higher = stronger binding
- SETUP CONDITIONS: peptide region: Unmod H4 variant; binder concentration: 10 nM
The answer should be written as a number, with no unit following it.

// below: answered binders
Input line: Record request: peptide microarray binding signal value, item YEETRGVLKVFLE [Unmod H4 variant Y E E T R G V L K V F L E]
Output line: 0.00197

Input line: Record request: peptide microarray binding signal value, item AKRKTVTAMDVVY [Unmod H4 variant A K R K T V T A M D V V Y]
Output line: 0.00609

Input line: Record request: peptide microarray binding signal value, item GKGGAKRHRKVLR [Unmod H4 variant G K G G A K R H R K V L R]
Output line: 0.00292

Continuing:
Input line: Record request: peptide microarray binding signal value, item KRHRKVLRDNIQG [Unmod H4 variant K R H R K V L R D N I Q G]
Output line: 0.00549

Input line: Record request: peptide microarray binding signal value, item ISGLIYEETRGVL [Unmod H4 variant I S G L I Y E E T R G V L]
Output line: 0.00233

Input line: Record request: peptide microarray binding signal value, item IRDAVTYTEHAKR [Unmod H4 variant I R D A V T Y T E H A K R]
Output line: 0.0251

Input line: Record request: peptide microarray binding signal value, item SGRGKGGKGLGKG [Unmod H4 variant S G R G K G G K G L G K G]
Output line: 0.00412
